- ASSAYED TARGET: HDAC2 (Homo sapiens, UniProt Q92769)
- Sequence (Q92769 with tags, fused parts or gaps): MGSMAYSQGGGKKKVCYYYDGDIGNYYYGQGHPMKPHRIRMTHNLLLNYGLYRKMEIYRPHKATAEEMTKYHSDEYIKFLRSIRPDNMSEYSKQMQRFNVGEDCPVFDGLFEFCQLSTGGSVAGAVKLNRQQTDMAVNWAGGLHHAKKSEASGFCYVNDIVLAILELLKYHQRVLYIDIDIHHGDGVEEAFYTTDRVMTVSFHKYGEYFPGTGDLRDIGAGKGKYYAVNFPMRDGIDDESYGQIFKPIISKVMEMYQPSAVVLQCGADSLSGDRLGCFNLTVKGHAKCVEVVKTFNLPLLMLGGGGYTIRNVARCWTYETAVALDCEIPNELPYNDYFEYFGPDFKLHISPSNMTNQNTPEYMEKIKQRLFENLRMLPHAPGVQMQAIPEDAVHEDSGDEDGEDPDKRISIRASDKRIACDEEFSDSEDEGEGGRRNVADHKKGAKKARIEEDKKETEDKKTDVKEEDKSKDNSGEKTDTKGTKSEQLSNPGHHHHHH
- PROTOCOL DETAILS: HDAC2 fluorescence inhibition assay (tBoc-Lys(Ac)-AMC)
# IC50 per record follows
ASSAY ENDPOINT: IC50

[[record]]
compound = "Nc1ccccc1NC(=O)c1ccc(Cc2c[nH]c3ccccc23)cc1 [Example 158]"
assayed_target = "HDAC2 (Homo sapiens, UniProt Q92769)"
measured_value = "50 to 100 nM"

[[record]]
compound = "CC(=O)Nc1ccc2cn(Cc3ccc(C(=O)Nc4ccccc4N)cc3)nc2c1 [Example 90]"
assayed_target = "HDAC2 (Homo sapiens, UniProt Q92769)"
measured_value = "≤ 50 nM"

[[record]]
compound = "Nc1ccccc1NC(=O)c1ccc(Cn2cc(C(=O)NCc3ccncc3)cn2)cc1 [Example 146]"
assayed_target = "HDAC2 (Homo sapiens, UniProt Q92769)"
measured_value = "≤ 50 nM"

[[record]]
compound = "CCCNC(=O)c1cnn(Cc2ccc(C(=O)Nc3ccccc3N)cc2)c1 [Example 149]"
assayed_target = "HDAC2 (Homo sapiens, UniProt Q92769)"
measured_value = "≤ 50 nM"


Where do the numbers come from? From patent US7732475B2.
